Exercise: state measured log2(corrected fold change) for each of the compounds provided.
- Subject Of Test: eIF2Bα (Homo sapiens, UniProt Q14232)
- Construct: made in house; host or cells: E. coli BL21(DE3)
- Sequence (Q14232 whole entry): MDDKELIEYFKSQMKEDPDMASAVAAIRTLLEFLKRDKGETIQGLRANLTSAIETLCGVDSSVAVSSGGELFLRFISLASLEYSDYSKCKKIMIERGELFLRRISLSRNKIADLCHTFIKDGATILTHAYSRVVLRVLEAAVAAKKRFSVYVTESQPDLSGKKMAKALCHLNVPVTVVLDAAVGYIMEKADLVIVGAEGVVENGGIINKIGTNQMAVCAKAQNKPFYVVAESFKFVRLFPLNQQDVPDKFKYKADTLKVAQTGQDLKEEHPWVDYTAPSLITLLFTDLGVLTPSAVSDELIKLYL
- Method Notes: MIDAS (mass spectrometry integrated with equilibrium dialysis) metabolite binding screen
- Condition: MIDAS screen, sheet eIF2Ba; metabolites screened in pools 1-4; p-value and q-value given
Answers are plain numbers.

Example results:
Compound	log2(corrected fold change)
CC(O)CC(=O)O (stereo not drawn) [3-Hydroxybutyric acid]	0.07137
C[C@H](O)CC(=O)O [(S)-3-Hydroxybutyric acid]	0.07137

Please turn your attention to the following entry.
Input line: Answer with the recorded log2(corrected fold change) of CCC(O)C(=O)O (stereo not drawn) [2-Hydroxybutanoic acid] only.
Output line: 0.07137
